All figures here come from patent US20190263799A1.

Tested on: BCL2
EXPERIMENTAL DETAILS: Durability of BCL2 expression inhibition after washout in MV4-11 cells
Format: cell-based
STUDY CONDITIONS: Homo sapiens, MV4-11, read-out: IC50 of BCL2 inhibition at 5 hours post washout
QUANTITY MEASURED: pIC50
Field pIC50 (float): negative decimal logarithm of the concentration in molar.

Enquiry: What measured pIC50 goes with C=CC(=O)N(C)c1cnc2nc(N3CCCC3)n(Cc3ccccc3)c2c1 ?
Return: 5.10

----------
TARGET OR SYSTEM: BRD4(1) (Homo sapiens, UniProt O60885)
Construct: N-terminally His-tagged bromodomains (BRD4(1) at 20 nM and BRD4(2) at 100 nM)
EXPERIMENTAL DETAILS: Inhibition of tetra-acetylated histone H4 binding to individual BET bromodomains (AlphaScreen)
STUDY CONDITIONS: His-tagged BRD4(1) 20 nM, biotinylated tetra-acetylated histone H4 peptide, 30 min incubation; read-out: FRET activity BRD4(1)
pIC50: −log10 of the molar value.
# reported pIC50; entries follow

Reference set, count: 4
C=CC(=O)N(C)c1cnc2nc(NC)n(Cc3ccccc3)c2c1 [Example 21] :: ≥ 6.52
C=CC(=O)N(C)c1cnc2nc(N3CC[C@@H](N(C)C)C3)n(Cc3ccccc3)c2c1 [Example 39] :: ≥ 6.52
CC(=O)Nc1cnc2nc(C)n(Cc3ccccc3)c2c1 [Example 1] :: 4.52 to 5.52
CCC(=O)N(C)c1cnc2nc(N3CCCC3)n(Cc3ccccc3)c2c1 [Example 28] :: ≥ 6.52

Enquiry: Checklist item: pIC50 tested on BRD4(1) (Homo sapiens, UniProt O60885), entry CCOC(=O)N(C)c1cnc2nc(N3CCCC3)n(Cc3ccccc3)c2c1 [Example 36] , value?
Return: ≥ 6.52

----------
System: MV4-11 cells
EXPERIMENTAL DETAILS: Inhibition of cell proliferation in cancer cell lines (MV4-11, CellTiter Aqueous One)
Type: cell-based
STUDY CONDITIONS: Homo sapiens, MV4-11, 72 h, read-out: Proliferation activity
QUANTITY MEASURED: IC50

Worked set:
C=CC(=O)N(C)c1cnc2nc(N3CC(O)C3)n(Cc3ccccc3)c2c1 [Example 42] :: 3000 to 30000 nM
CCOC(=O)N(C)c1cnc2nc(N3CCCC3)n(Cc3ccccc3)c2c1 [Example 36] :: 300 to 3000 nM
C=CC(=O)N(C)c1cnc2nc(N3CCCC3)n(Cc3ccccc3)c2c1 [Example 15] :: 300 to 3000 nM

Enquiry: Form field: reported IC50 of COC(=O)N(C)c1cnc2nc(N3CCCC3)n(Cc3ccccc3)c2c1 [Example 30]
Return: 300 to 3000 nM

Enquiry: IC50 lookup needed for CN(C)C(=O)N(C)c1cnc2nc(N3CCCC3)n(Cc3ccccc3)c2c1 [Example 35] , thanks.
Return: 3000 to 30000 nM

----------
TARGET OR SYSTEM: BRD4(1) (Homo sapiens)
Construct: N-terminally His-tagged bromodomains (BRD4(1) at 20 nM and BRD4(2) at 100 nM)
EXPERIMENTAL DETAILS: Inhibition of tetra-acetylated histone H4 binding to individual BET bromodomains (AlphaScreen)
STUDY CONDITIONS: His-tagged BRD4(1) 20 nM, biotinylated tetra-acetylated histone H4 peptide, 30 min incubation; read-out: FRET activity BRD4(1)
pIC50: −log10 of the molar value.
Recorded pIC50, one value per entry.

Check out these entries, answers already filled in.
C=CC(=O)N(C)c1cnc2nc(N3CC[C@@H](O)C3)n(Cc3ccccc3)c2c1 [Example 41] :: ≥ 6.52
C=CC(=O)N(C)c1cnc2nc(N3CC[C@H](O)C3)n(Cc3ccccc3)c2c1 [Example 46] :: ≥ 6.52
CN(C(=O)CO)c1cnc2nc(N3CCCC3)n(Cc3ccccc3)c2c1 [Example 32] :: 5.52 to 6.52
C=CC(=O)N(CC)c1cnc2nc(C)n(Cc3ccccc3)c2c1 [Example 7] :: 5.52 to 6.52
CC(=O)N(C)c1cnc2nc(N3CCCC3)n(Cc3ccccc3)c2c1 [Example 18] :: ≥ 6.52
C=CC(=O)N(C)c1cnc2nc(N3CCOCC3)n(Cc3ccccc3)c2c1 [Example 16] :: ≥ 6.52
CC(C)C(=O)N(C)c1cnc2nc(N3CCCC3)n(Cc3ccccc3)c2c1 [Example 33] :: 5.52 to 6.52
CN(C(=O)C1CC1)c1cnc2nc(N3CCCC3)n(Cc3ccccc3)c2c1 [Example 29] :: ≥ 6.52

Enquiry: Name the reported pIC50 value associated with the molecule CN(C(=O)CCCl)c1cnc2c(c1)n(Cc1ccccc1)c(=O)n2C [Example 10]
Return: 4.52 to 5.52

Enquiry: Name the recorded pIC50 for CC(=O)N(C)c1cnc2nc(C)n(Cc3ccccc3)c2c1 [Example 3] .
Return: ≥ 6.52

Enquiry: Look at this molecule and give its reported pIC50. CC(=O)N(C)c1cnc2c(c1)n(Cc1ccccc1)c(=O)n2C [Example 11]
Return: ≥ 6.52

----------
System: MV4-11 cells
EXPERIMENTAL DETAILS: Inhibition of cell proliferation in cancer cell lines (MV4-11, CellTiter Aqueous One)
Format: cell-based
STUDY CONDITIONS: Homo sapiens, MV4-11, 72 h, read-out: Proliferation activity
pIC50: −log10 of the molar value.
Below, each entry is listed with its recorded pIC50.

# count of solved cases: 5
C=CC(=O)N(C)c1cnc2nc(N3CCC3)n(Cc3ccccc3)c2c1 :: 5.52 to 6.52
C=CC(=O)N(C)c1cnc2nc(NC3CCN(C)CC3)n(Cc3ccccc3)c2c1 :: 4.52 to 5.52
CC(=O)N(C)c1cnc2nc(C)n(Cc3ccccc3)c2c1 :: 4.52 to 5.52
C=CC(=O)N(C)c1cnc2nc(N3C4CCC3CC(O)C4)n(Cc3ccccc3)c2c1 (stereo not drawn) :: 4.52 to 5.52
C=CC(=O)N(C)c1cnc2nc(N3CC[C@@H](O)C3)n(Cc3ccccc3)c2c1 :: 4.52 to 5.52

Okay, next one:
Enquiry: Which value of pIC50 has been reported for CC(C)OC(=O)N(C)c1cnc2nc(N3CCCC3)n(Cc3ccccc3)c2c1 in the records?
Return: 4.52 to 5.52

----------
Entries and their measured pIC50 follow.
TARGET OR SYSTEM: BRD4(1) (Homo sapiens, UniProt O60885)
Construct: N-terminally His-tagged bromodomains (BRD4(1) at 20 nM and BRD4(2) at 100 nM); made in house; host or cells: E. coli BL21(DE3)
EXPERIMENTAL DETAILS: Inhibition of tetra-acetylated histone H4 binding to individual BET bromodomains (AlphaScreen)
STUDY CONDITIONS: His-tagged BRD4(1) 20 nM, biotinylated tetra-acetylated histone H4 peptide, 30 min incubation; read-out: FRET activity BRD4(1)
pIC50: −log10 of the molar value.

Reference set, count: 6
CC(C)OC(=O)N(C)c1cnc2nc(N3CCCC3)n(Cc3ccccc3)c2c1 :: 5.52 to 6.52
C=CC(=O)N(C)c1cnc2nc(N3Cc4cnn(C)c4C3)n(Cc3ccccc3)c2c1 :: ≥ 6.52
C=CC(=O)N(C)c1cnc2nc(NC3CCN(C)CC3)n(Cc3ccccc3)c2c1 :: ≥ 6.52
C=CC(=O)N(C)c1cnc2nc(N3CC(CO)C3)n(Cc3ccccc3)c2c1 :: ≥ 6.52
COC(=O)N(C)c1cnc2nc(N3CCCC3)n(Cc3ccccc3)c2c1 :: ≥ 6.52
C=CC(=O)N(C)c1cnc2nc(C)n(Cc3ccccc3)c2c1 :: ≥ 6.52

Enquiry: What does the data say about its pIC50? Entry: C=CC(=O)N(C)c1cnc2nc(N3C4CCC3CC(O)C4)n(Cc3ccccc3)c2c1 (stereo not shown)
Return: ≥ 6.52

Enquiry: Sample C=CC(=O)N(C)c1cnc2nc(N3CC[C@@H](CO)C3)n(Cc3ccccc3)c2c1 — what was its pIC50?
Return: ≥ 6.52

Enquiry: Which value of pIC50 has been reported for C=CC(=O)N(C)c1cnc2nc(N3CC[C@H](NC(C)=O)C3)n(Cc3ccccc3)c2c1 in the records?
Return: ≥ 6.52

Enquiry: Given the compound C=CC(=O)N(C)c1cnc2nc(N3CCCC3)n(Cc3ccccc3)c2c1 , what is its reported pIC50?
Return: ≥ 6.52
